read-out: Matrix Metallopeptidase 9 (MMP9), MMP9 (gene 4318); assay: BSK_KF3CT_MMP9: BioMAP Diversity Plus: KF3CT Assay for Matrix Metallopeptidase 9 (MMP9) Biomarker Activity (AID 2283074); details: primary human keratinocytes with fibroblasts; actives raise or lower the signal;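 as to AC50: MMP9 protein level quantified by ELISA in the co-culture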
Active and inactive are the calls of the source. The calls were made as follows: active = hit-call score of the fitted dose curve at least 0.9, where 1 is the maximum; inactive = score below 0.9.
MEASURE_NAME: AC50

* CCOP(=S)(OCC)SCCSCC | inactive
* Cc1cc(C2CC2)nc(Nc2ccccc2)n1 | inactive
* CN(C)C(=O)Nc1cccc(C(F)(F)F)c1 | inactive
* Nc1c(Cl)cc([N+](=O)[O-])cc1Cl | inactive
* COP(=O)(OC)C(O)C(Cl)(Cl)Cl (stereo not given) | inactive

Task item: Quick one: AC50 for CC[C@H](C)[C@H]1O[C@]2(C=C[C@@H]1C)C[C@@H]1C[C@@H](C/C=C(\C)[C@@H](O[C@H]3C[C@H](OC)[C@@H](O[C@H]4C[C@H](OC)[C@@H](NC)[C@H](C)O4)[C@H](C)O3)[C@@H](C)/C=C/C=C3\CO[C@@H]4[C@H](O)C(C)=C[C@@H](C(=O)O1)[C@]34O)O2 ?
Reply: 6.21 µM (active)

Task item: Reported AC50, compound CCCCOC(=O)[C@@H](C)Oc1ccc(Oc2ccc(C#N)cc2F)cc1 : ____
Reply: inactive

Task item: Quick check: AC50 of CCc1cccc(CC)c1N(COC)C(=O)CCl ?
Reply: 20 µM (active)

Task item: Record request: AC50 value, item CC1(C(=O)Nc2ccc(O)c(Cl)c2Cl)CCCCC1
Reply: inactive

Task item: So what's the measured AC50 for this one? CCOC(=O)CC(SP(=O)(OC)OC)C(=O)OCC (stereo not given)
Reply: inactive

Task item: Any idea what AC50 was measured for CCCSP(=O)(OCC)SCCC ?
Reply: inactive

Task item: Which AC50 value is on record for S=C1NCCN1 ?
Reply: inactive

Task item: Which AC50 value is on record for O=c1ccc(=O)[nH][nH]1 ?
Reply: inactive

Values compiled from PubChem BioAssay (EPA / NIEHS).
